assay: ATG_AP_1_CIS: Attagene CIS-FACTORIAL HepG2 Assay for human Activator Protein 1 (AP-1) (AID 2282931); conditions: HepG2 Attagene cis-factorial AP-1 reporter mRNA; actives raise or lower the signal
The source made the active and inactive calls. How the source made its calls: active means hit-call score of the fitted dose curve at least 0.9, where 1 is the maximum; inactive means score below 0.9.
Quantity Kind: AC50

Consider the following illustrative entries.
CC1=Nc2ccc3ccccc3c2C1(C)C :: 66 µM (active)
Cn1c(=O)[nH]c2ncn(C)c2c1=O :: inactive
CC(C)COC(=O)C=Cc1ccccc1 :: 139 µM (active)
CC(=O)OCc1ccco1 :: inactive
CC(C)=CC1CC(C)CCO1 (stereo not drawn) :: inactive

For the compound shown here, `COC(F)(F)C(F)(C(F)(F)F)C(F)(F)F` , give the reported AC50.
inactive

Note, next up: `O=S(=O)(O)c1cc(S(=O)(=O)O)c2ccc3c(S(=O)(=O)O)cc(S(=O)(=O)O)c4ccc1c2c43`
inactive

Note, next up: `CCCCCCCCC(=O)OCC`
inactive

###

target: Hepatocyte nuclear factor 6 (Homo sapiens) (UniProt Q9UBC0); assay: ATG_HNF6_CIS: Attagene CIS-FACTORIAL HepG2 Assay for human Hepatocyte Nuclear Factor 6 (HNF6) (AID 2282952); settings: HepG2 Attagene cis-factorial HNF6 reporter transcription; actives raise or lower the signal
Sequence (Q9UBC0 whole entry, looked up): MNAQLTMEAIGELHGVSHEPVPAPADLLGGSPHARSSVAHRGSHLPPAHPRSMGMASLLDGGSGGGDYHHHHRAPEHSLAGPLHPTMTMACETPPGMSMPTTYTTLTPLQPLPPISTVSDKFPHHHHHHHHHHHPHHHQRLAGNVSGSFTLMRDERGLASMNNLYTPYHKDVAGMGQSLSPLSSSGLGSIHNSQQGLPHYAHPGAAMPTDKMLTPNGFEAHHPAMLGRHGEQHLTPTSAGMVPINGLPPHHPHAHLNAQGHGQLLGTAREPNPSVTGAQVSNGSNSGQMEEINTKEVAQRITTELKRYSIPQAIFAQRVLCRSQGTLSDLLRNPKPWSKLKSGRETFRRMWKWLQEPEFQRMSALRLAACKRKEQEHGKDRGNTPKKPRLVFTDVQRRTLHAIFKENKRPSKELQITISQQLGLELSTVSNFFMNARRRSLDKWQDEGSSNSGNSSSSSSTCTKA
Active and inactive are the calls of the source. Rule for the calls: active = hit-call score of the fitted dose curve at least 0.9, where 1 is the maximum; inactive = score below 0.9.
Quantity Kind: outcome

O=C1C(N(CO)C(=O)NCO)N(CO)C(=O)N1CO (stereo not drawn) :: inactive
O=[N+]([O-])c1ccc(CO)cc1 :: inactive
OCCc1ccncc1 :: inactive

###

Assay: ATG_BRE_CIS: Attagene CIS-FACTORIAL HepG2 Assay for human Bone Morphogenetic Protein (BMP) Response Element (BRE) (AID 2282933)
Conditions: HepG2 BMP response element reporter, Attagene transcription factor profiling; actives raise or lower the signal
Protocol: ATG_CIS is a cell-based, multiplexed-readout assay that uses HepG2, a human liver cell line, with measurements taken at 24 hours after chemical dosing in a 24-well plate.ATG_BRE_CIS is one of 52 assay component(s) measured or calculated from the ATG_CIS assay. […] This assay endpoint, ATG_BRE_CIS, was analyzed with bidirectional fitting relative to DMSO as the negative control and baseline of activity. […]
Calls of active or inactive are those of the source. Rule for the calls: active = hit-call score of the fitted dose curve at least 0.9, where 1 is the maximum; inactive = score below 0.9.
Just give me one of these, please: true (1) for active, false (0) for inactive

O=C1CC2CC1C1CCCC21 (stereo not drawn) :: false (0)
CCCCCCCCCCCCCOP(=O)(O)O :: false (0)
C[C@]12C=CC(=O)C=C1CC[C@@H]1[C@@H]2[C@@H](O)C[C@@]2(C)[C@H]1CC[C@]2(O)C(=O)CO :: false (0)
C=C[C@](C)(O)CC[C@@H]1[C@@]2(C)CCCC(C)(C)[C@@H]2CC[C@@]1(C)O :: false (0)
CCc1nccnc1C :: false (0)
COC(=O)/C=C\C(=O)O :: false (0)

Hi team, can someone confirm the assay call for `Cc1ccc([N+](=O)[O-])cc1S(=O)(=O)O` ?
false (0)

Note, next up: CC(=O)OCC(C)OC(C)=O (stereo not drawn)
false (0)

Note, next up: `NC(=O)OCC(COC(N)=O)c1ccccc1`
false (0)

Note, next up: `NC(=O)N=NC(N)=O`
true (1)

Note, next up: `O=c1n(CCO)c(=O)n(CCO)c(=O)n1CCO`
false (0)

Note, next up: `O=C(Cl)c1cc(C(=O)Cl)cc(C(=O)Cl)c1`
true (1)

Note, next up: `CCCCCCCCCCCCCCCC(=O)OCC`
false (0)

###

molecular target: Myc proto-oncogene protein (Homo sapiens); test: ATG_Myc_CIS: Attagene CIS-FACTORIAL HepG2 Assay for human Myelocytomatosis (Myc) Proto-Oncogene Transcription Factor (AID 2282990); conditions: HepG2, Attagene cis-reporter transcription factor activity; actives raise or lower the signal
Active and inactive are the calls of the source. How the source made its calls: active means hit-call score of the fitted dose curve at least 0.9, where 1 is the maximum; inactive means score below 0.9.
Just give me one of these, please: T for active, F for inactive

CCCOC(=O)CCCCC(=O)OCCC :: F
CCCCCCCC(C)=O :: F
CC(C)=CCC/C(C)=C\C#N :: F
O=C(O)C(c1ccc(Cl)cc1)c1ccc(Cl)cc1 :: F
CCc1c(C(=O)O)c(=O)cnn1-c1ccc(Cl)cc1 :: F
COc1cc(C)ccc1C(C)C :: F
O=C1CCC(=O)N1Cl :: F
c1ccc(CNCc2ccccc2)cc1 :: F
O=C(O)c1ccccc1Nc1cccc(C(F)(F)F)c1 :: F
CC/C=C\C/C=C\C/C=C\CCCCCCCC(=O)O :: F

Hi team, can someone confirm the assay call for `CCN(CCO)c1cccc(C)c1` ?
F

Note, next up: `Nc1ccc(N)c(Cl)c1`
T

###

experiment: BSK_LPS_PGE2: BioMAP Diversity Plus: LPS Assay for Prostaglandin E2 (PGE2) Biomarker Activity (AID 2283082); conditions: primary human HUVEC with PBMC; actives raise or lower the signal
Active and inactive are the calls of the source. How the source made its calls: active means hit-call score of the fitted dose curve at least 0.9, where 1 is the maximum; inactive means score below 0.9.
Just give me one of these, please: active, inactive

Study these solved cases before continuing.
CCCCCCCCCCCCCCCC[N+](C)(C)CC :: inactive
c1ccc(-c2ccccn2)nc1 :: inactive
O=C1CCCN1CCO :: inactive
CC(C)C(=O)C(C)C :: inactive
O=C(Nc1ccccc1SSc1ccccc1NC(=O)c1ccccc1)c1ccccc1 :: inactive

Hi team, can someone confirm the assay call for `C/C=C\C/C=C/CCCCCCCCOC(C)=O` ?
active

Note, next up: CCCCC(CC)COCC1CO1 (centres undefined)
inactive

###

read-out: Decorin, DCN (gene 1634); test: BSK_MyoF_Decorin: BioMAP Diversity Plus: MyoF Assay for Decorin Biomarker Activity (AID 2284265); conditions: primary human lung fibroblasts
The source made the active and inactive calls. The calls were made as follows: active = hit-call score of the fitted dose curve at least 0.9, where 1 is the maximum; inactive = score below 0.9.
Quantity Kind: AC50

Consider the following illustrative entries.
c1ccc2c(c1)ccc1cc3c(ccc4ccccc43)cc12 :: inactive
CC(C)(c1cc(Br)c(OCCO)c(Br)c1)c1cc(Br)c(OCCO)c(Br)c1 :: 9.76 µM (active)
CCCCCCCCCCCCCCCC[N+](C)(C)CC :: 5.5 µM (active)
c1ccc(-c2ccccn2)nc1 :: inactive
CCCCC(CC)COC(=O)c1ccccc1O (configuration not stated) :: inactive

For the compound shown here, `CCCCCCCCc1ccc(Nc2ccc(CCCCCCCC)cc2)cc1` , give the reported AC50.
inactive

Note, next up: C=CCOCC(O)CCl (configuration not stated)
inactive

###

test: ATG_M_06_CIS: Attagene CIS-FACTORIAL HepG2 Assay for M06 Transcription Factor (Internal Marker) (AID 2282950); conditions: HepG2 Attagene CIS-FACTORIAL M06 internal marker reporter; actives raise or lower the signal
Activity calls are given as the source filed them. Rule for the calls: active = hit-call score of the fitted dose curve at least 0.9, where 1 is the maximum; inactive = score below 0.9.
Just give me one of these, please: active, inactive

COc1ccc([C@@H]2CC(=O)c3c(O)cc(O[C@@H]4O[C@H](CO[C@@H]5O[C@@H](C)[C@H](O)[C@@H](O)[C@H]5O)[C@@H](O)[C@H](O)[C@H]4O)cc3O2)cc1OC :: inactive
N#[N+]c1ccc2c(S(=O)(=O)[O-])cccc2c1O :: inactive
C=C[C@](C)(O)CC[C@@H]1[C@@]2(C)CCCC(C)(C)[C@@H]2CC[C@@]1(C)O :: inactive
CC(C)(C)C(=O)C=Cc1ccc(Cl)cc1 :: active

Alright, here's another compound for you.
Hi team, can someone confirm the assay call for `CCCCCCCCO[C@@H]1O[C@H](CO)[C@@H](O)[C@H](O)[C@H]1O` ?
inactive

###

experiment: TOX21_p53_BLA_p2_viability: Viability Assessment in the Tox21 HCT-116 p53 Agonism Beta-lactamase Assay, Phase 2 (AID 2283591);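 further: compound exposure lasted 16 h at 37 °C; actives lower the ATP signal meaning cytotoxicity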
Records with an inconclusive call do not appear. Calls of active or inactive are those of the source. The calls were made as follows: active = hit-call score of the fitted dose curve at least 0.9, where 1 is the maximum; inconclusive = response in the unintended direction; inactive = score below 0.9.
Just give me one of these, please: active, inactive

Study these solved cases before continuing.
C1CN(SSN2CCOCC2)CCO1 :: inactive
CCCCCCCCCCCCCCCC[N+](C)(C)CC :: active
CCC(C)C=O (centres undefined) :: inactive
CC(C)c1ccc2c(c1)CC[C@H]1[C@](C)(CN)CCC[C@]21C :: active
C=CC(=O)NC(C)(C)CS(=O)(=O)O :: inactive
CCC(Cc1ccccc1)(C(=O)c1ccc(N2CCOCC2)cc1)N(C)C (centres undefined) :: inactive

Hi team, can someone confirm the assay call for CN1C(=O)N(C)C(O)C1O (centres undefined) ?
inactive

Note, next up: CCCCC(CC)COC(=O)c1ccccc1O (centres undefined)
inactive

###

experiment: ACEA_ER_AUC_viability: ACEA Biosciences xCELLigence Real-Time Cell Analysis on Estrogen Receptor Agonism for Viability (AID 2283782);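 further: continuous compound exposure with impedance area under curve over 80 h; hit means loss of impedance signal meaning reduced cell growth or viability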
Records with an inconclusive call do not appear. Activity calls are given as the source filed them. How the source made its calls: active means hit-call score of the fitted dose curve at least 0.9, where 1 is the maximum; inconclusive means response in the unintended direction; inactive means score below 0.9.
Just give me one of these, please: True (active), False (inactive)

Study these solved cases before continuing.
Cn1c([N+](=O)[O-])cnc1COC(N)=O :: False
O=CN1CCCCC1 :: False
C=C(C)C(=O)OCC(C)C :: False

Hi team, can someone confirm the assay call for O=C1CC2CC1C1CCCC21 (stereo not given) ?
False
